Hey, just so you know, these numbers are from patent US20210388084A1.

MEASURED TARGET: T1, membrane-bound full-length human CD89 (human, UniProt P24071 22-287)
T1 construct: on stably or transiently transfected HEK293F cells; also called FcalphaRI; huCD89
TEST PROTOCOL: FACS, HEK293F-huCD89, unlabeled Ab 10 ug/mL first; competitor A59-PE
RECORDED METRIC: % blocking of A59-PE binding

query: Form field: reported % blocking of A59-PE binding of mouse anti-human CD89-specific antibody 30C7 (antibody, mouse IgG1, V domains shown) VH: QVQLQQSGPELVRPGVSVKISCKGSGYTFTDYVMHWVKQSHAKSLEWIGVISTYSGNTNYNQKFKGKATMTVDKSSSTAYMELARLTSEDSAIYYCARESDGYYFDYWGQGTTLTVSS VL: DIVMSQSPSSLAVSAGEKVTMSCKSSQSLLNSRTRKNYLAWYQQKPGQSPKLLIYWASTRESGVPDRFTGSGSGTDFTLTISSVQAEDLAVYYCKQSYNLMYTFGGGTKLEIK
result: < 25%
